Data provenance: BindingDB's records for doi:10.3109/14756366.2012.658788

Listed here: compounds with reported Ki for Carbonic anhydrase 1 (Homo sapiens).
measurement-name: Ki (nM)

Below, 2 compounds whose answers are already recorded.
Cc1ccc(S(=O)(=O)N(c2ccccc2)c2ccccc2)cc1 [CA inhibitor, 12] :: 377
Cc1ccc(S(=O)(=O)Nc2ccccc2C)cc1 :: 386

(A) CC(=O)Oc1cccn1S(=O)(=O)c1ccc(C)cc1 [CA inhibitor, 14]
(B) Cc1ccc(S(=O)(=O)n2cccc2)cc1 [1-tosyl-1H-pyrrole]
(C) Cc1ccc(NS(=O)(=O)c2ccc(C)cc2)cc1 [Carbonic anhydrase inhibitors (CAIs), 1]
Q: Order field: Ki | Direction: descending (largest first) I'd appreciate it if you listed the labels in the requested order.
Ans: B, C, A
(B: 6010 nM, C: 501 nM, A: 339 nM)
